property label: MDR1-MDCK efflux ratio

[[record]]
smiles = "COc1ccc(OCc2n[nH]c(-c3n[nH]c4c3CCC4)n2)cc1"
quantitative_result = 2.2

[[record]]
smiles = "CCN1CCC(Nc2ncnc3c2cnn3C)CC1"
quantitative_result = 4.01

[[record]]
smiles = "Oc1ccc2nc(/C=C/c3csnn3)ccc2c1Cl"
quantitative_result = 0.069

[[record]]
smiles = "COCc1ccccc1CNc1ccc2nnc(-c3ccccc3)n2n1"
quantitative_result = 9.33

[[record]]
smiles = "FC(F)(F)c1nccc(NCCSc2nc3ccccc3o2)n1"
quantitative_result = 0.317

[[record]]
smiles = "CCCc1cc(CNS(=O)(=O)c2cc(-c3cnc(C)o3)ccc2C)on1"
quantitative_result = 7.7


----------
Conditions: pH 6.8
property label: aqueous solubility (µg/mL)

[[record]]
smiles = "COC(=O)[C@@H]1Cc2ncn(Cc3ccccc3)c2CN1C(C)=O"
property_label = "aqueous solubility"
quantitative_result = 32.2

[[record]]
smiles = "CC(C)CCNC(=O)c1ccc2ccccc2n1"
property_label = "aqueous solubility"
quantitative_result = 7.28

[[record]]
smiles = "Cc1cc(C)n2ncc(C(=O)NC3CCCCC3)c2n1"
property_label = "aqueous solubility"
quantitative_result = 4.94

[[record]]
smiles = "O=C(CN1CCc2ccccc21)N1CCNC1=O"
property_label = "aqueous solubility"
quantitative_result = 27.5

[[record]]
smiles = "Cc1ccccc1OCCCNc1cc(Cn2c(C)nc3ccccc32)nc(N)n1"
property_label = "aqueous solubility"
quantitative_result = 14.4

[[record]]
smiles = "CNc1nc(C2CCNCC2)nc2c1CN(C)CC2"
property_label = "aqueous solubility"
quantitative_result = 36.2


----------
Catalogue of intrinsic clearance, human liver microsomes values
property label: intrinsic clearance, human liver microsomes (mL/min/kg)

[[record]]
smiles = "COc1ccc(Cl)cc1C(=O)NCCc1ccc(S(=O)(=O)NC(=O)NC2CCCCC2)cc1"
comparator = "="
quantitative_result = 28.7

[[record]]
smiles = "CC(C)CN(Cc1cnn(C)c1)C(=O)c1cccc(-c2cnccn2)c1"
comparator = "="
quantitative_result = 448

[[record]]
smiles = "CCOc1cc2nn(CCC(C)(C)O)cc2cc1NC(=O)c1cccc(C(F)F)n1"
comparator = "≤"
quantitative_result = 4.74

[[record]]
smiles = "COc1cc2cc(N)c(C3CCN(C(=O)C(C)(C)C)CC3)nc2cc1OC"
comparator = "="
quantitative_result = 7.04

[[record]]
smiles = "CCOC(=O)c1ccc(NC(=O)Cn2cnc3ccccc32)cc1"
comparator = "="
quantitative_result = 7.03


----------
Where intrinsic clearance, rat liver microsomes equals or exceeds 100 mL/min/kg, the correct label is Criterion met; where it does not, the label is Criterion not met.

[[record]]
molecule = "CNC(=O)c1sc2ncccc2c1[C@H]1CC[C@H](CNC(=O)CCc2ccccc2)CC1"
classification = "Criterion met"

[[record]]
molecule = "Cc1ccccc1NC(=O)CN1C(=O)CCC1=O"
classification = "Criterion not met"

[[record]]
molecule = "CCCCCCCC/C(=C\\CCCCCCCC(=O)O)[N+](=O)[O-]"
classification = "Criterion not met"

[[record]]
molecule = "COC(=O)N1CCCN(C(=O)c2ccc(-c3ccccc3Cl)o2)CC1"
classification = "Criterion met"

[[record]]
molecule = "CNc1ncc(-c2nc(C3(c4ccccc4)CC3)nn2C(C)(C)C)cn1"
classification = "Criterion met"

[[record]]
molecule = "CN(CCOc1ccccc1)CC(=O)NCCc1ccccc1"
classification = "Criterion met"

[[record]]
molecule = "Cc1cc(CNc2cc(C(=O)N(C)C)ccn2)sc1Br"
classification = "Criterion met"

[[record]]
molecule = "C[C@@H]1c2nnn(-c3ncc(F)cn3)c2CCN1C(=O)c1cccc(C(F)(F)F)c1Cl"
classification = "Criterion not met"

[[record]]
molecule = "Cc1nc(NCC(C)(C)c2ccccc2)n(C)n1"
classification = "Criterion met"

[[record]]
molecule = "Cc1ccc(C(=O)C(=O)Nc2c(C)nn(C)c2C)cc1"
classification = "Criterion met"

[[record]]
molecule = "CCc1ccccc1NC(=O)Cn1nc(C)cc1C"
classification = "Criterion not met"

[[record]]
molecule = "Cc1ncc(C)n2nc([C@@H]3C[C@H]3c3nc4c5cccnc5ccn4c3C)nc12"
classification = "Criterion not met"

[[record]]
molecule = "O=c1oc2cccnc2n1Cc1cnn(-c2ccccc2)n1"
classification = "Criterion not met"

[[record]]
molecule = "Cc1nc(NCc2cn(C)nc2-c2cccs2)n(C)n1"
classification = "Criterion not met"

[[record]]
molecule = "O=C(COc1cccc(-n2cncn2)c1)N1CCc2ccccc21"
classification = "Criterion met"

[[record]]
molecule = "Cc1cccc(NC(=O)c2cncn2-c2ccccc2)n1"
classification = "Criterion met"

[[record]]
molecule = "COc1cccc(C(=O)Nc2nccs2)c1"
classification = "Criterion met"

[[record]]
molecule = "O=C(NCCc1ccc2c(c1)OCO2)N1CCc2sccc2C1"
classification = "Criterion met"

[[record]]
molecule = "Cn1ccc(C(=O)N2CCCC(c3cccc(-c4cccc(Cl)c4)n3)C2)n1 (centres undefined)"
classification = "Criterion met"

[[record]]
molecule = "O=C1CN(C(=O)c2ccc(F)cc2)CCN1"
classification = "Criterion not met"

[[record]]
molecule = "Cc1cc(-n2nc(C)cc2N)nc(C)n1"
classification = "Criterion met"

[[record]]
molecule = "CN(Cc1nncn1C)C1CCN(c2ccccc2F)CC1"
classification = "Criterion not met"

[[record]]
molecule = "O=C(Cc1c(F)cccc1Cl)Nc1cccc2cnccc12"
classification = "Criterion met"

[[record]]
molecule = "Cc1cccc(Oc2cc(CN)ccn2)c1C"
classification = "Criterion met"

[[record]]
molecule = "Cc1cc(C(=O)Nc2c(C)nn(C(C)C)c2C)c2ccc(F)cc2n1"
classification = "Criterion not met"

[[record]]
molecule = "Cc1noc(C2CCN(C(=O)C3(c4cccc(F)c4)CCC3)CC2)n1"
classification = "Criterion met"

[[record]]
molecule = "Nc1cnn(CC(=O)N2CCCCC2)c1"
classification = "Criterion not met"

[[record]]
molecule = "COC(=O)CCCNC(=O)CN1CCC(C(=O)c2ccc(C)cc2C)CC1"
classification = "Criterion met"

[[record]]
molecule = "CN(CCSc1ccc2nnnn2n1)Cc1ccccc1"
classification = "Criterion not met"

[[record]]
molecule = "O=C(CC[C@@H]1CCCN2CCCC[C@H]12)NCc1ncc(Cl)cn1"
classification = "Criterion not met"

[[record]]
molecule = "CCCN1CCCN(c2ncccc2C#N)CC1"
classification = "Criterion met"

[[record]]
molecule = "N#Cc1cc(F)ccc1Cn1ccnc1-c1ccccn1"
classification = "Criterion met"

[[record]]
molecule = "O=C(O)c1csc(Cc2ccc(Cl)cc2)n1"
classification = "Criterion not met"

[[record]]
molecule = "Fc1ccc(-n2nc(C3CCOCC3)nc2-c2cn[nH]c2)c(F)c1"
classification = "Criterion not met"

[[record]]
molecule = "CCCn1ccnc1CNc1nc2c(s1)c(C)nn2C"
classification = "Criterion met"

[[record]]
molecule = "O=c1ncn2nc(Sc3ccc(F)cc3F)ccc2c1-c1c(Cl)cccc1Cl"
classification = "Criterion not met"

[[record]]
molecule = "Cc1c(F)cccc1NC(=O)CN1[C@H](Cc2ccccc2)C[C@]2(C)NC(=O)CCC[C@H]12"
classification = "Criterion met"

[[record]]
molecule = "CNC(=O)c1cc(C2CCN(C)CC2)ncn1"
classification = "Criterion not met"

[[record]]
molecule = "CCN1CCC(Oc2ncnc3c2c(C)c(C)n3C2CCCCC2)CC1"
classification = "Criterion met"

[[record]]
molecule = "O=C(COCC1CC1)N1CCCc2ncccc21"
classification = "Criterion not met"

[[record]]
molecule = "CCCn1cc(CNc2ncccn2)cn1"
classification = "Criterion not met"

[[record]]
molecule = "CC1=NN(c2ccc(F)cc2)C(=O)/C1=C(/C)Nc1ccc(S(N)(=O)=O)cc1"
classification = "Criterion not met"

[[record]]
molecule = "O=C(CSc1nc2nc(O)cc(O)c2s1)c1ccc(-c2ccccc2)cc1"
classification = "Criterion met"

[[record]]
molecule = "Cc1cccc(NC(=O)CN(C)c2ncccc2F)n1"
classification = "Criterion met"

[[record]]
molecule = "CC(=O)N1CCN(C(=O)CCc2ccc(-c3ccccc3)[nH]2)CC1"
classification = "Criterion not met"

[[record]]
molecule = "COc1ccc(-c2csc3ncnc(Oc4ccc(C)nc4)c23)cc1"
classification = "Criterion met"

[[record]]
molecule = "CCCNC(=O)NS(=O)(=O)c1ccc(Cl)cc1"
classification = "Criterion not met"

[[record]]
molecule = "CC(C(=O)Nc1ccc(C(N)=O)cc1)N1CCCC(c2nc3ccccc3o2)C1 (centres undefined)"
classification = "Criterion met"

[[record]]
molecule = "CC(=O)Nc1ccc(C(=O)N2CCCCC2c2nc(N)ncc2-c2ccc(Cl)cc2)cc1 (centres undefined)"
classification = "Criterion met"


----------
Conditions: pH 6.8
Reported aqueous solubility by item:
property label: aqueous solubility (µg/mL)

[[record]]
smiles = "CN(C)[C@@H]1CN(C(=O)CCn2cnc3ccccc32)C[C@H]1O"
quantitative_result = 151

[[record]]
smiles = "Cc1n[nH]c(C)c1Cc1ccc(NCCC(C)C)cc1"
quantitative_result = 14.7

[[record]]
smiles = "O=C(c1cccc(CNc2ccc3nccnc3n2)c1)N1CCCCC1"
quantitative_result = 56.3

[[record]]
smiles = "c1ccc(-c2noc(NCC3CCC3)n2)cc1"
quantitative_result = 34.7

[[record]]
smiles = "Nc1ccc2c(ccn2CC(=O)N2CCOCC2)c1"
quantitative_result = 50.5

[[record]]
smiles = "Cc1ccc(CN(C)C(=O)c2cn(Cc3ccccc3F)nn2)cc1"
quantitative_result = 11.4


Origin of measurements: the Biogen ADME set (Fang et al. 2023)
